Sourced from patent US20120022261A1

test: 50° C. test (storage at 50° C. over 18 hours in a hot-air cabinet); format: physicochemical; parameters: key: A positive test result indicates that the product still exists in a solid and powdery state after the heat treatment; If the product undergoes a sintering process and/or starts to melt at this temperature, the test result is classified as negative; conditions: solid product stored at 50° C. for 18 hours in a hot-air cabinet
observed.property: 50° C. Test

                                   compound  observed_property    result
0  CCCC[N+](CCCC)(CCCC)CCCC.CCN1C(=O)C(=CC=Cc2c(C)c(C#N)c(=O)n(CC)c2[O-])C(C)=C(C#N)C1=O        50° C. Test  positive
1  CCCC[N+](CCCC)(CCCC)CCCC.COCCN1C(=O)C(=CC=Cc2c(C)c(C#N)c(=O)n(CCOC)c2[O-])C(C)=C(C#N)C1=O [reference compound]        50° C. Test  negative
2  CCCC[N+](CCCC)(CCCC)CCCC.CCCCn1c([O-])c(C=CC=C2C(=O)N(CCCOC(C)C)C(=O)C(C#N)=C2C)c(C)c(C#N)c1=O [reference compound]        50° C. Test  negative
3  CC1=C(C#N)C(=O)N(CC(C)C)C(=O)C1=CC=Cc1c(C)c(C#N)c(=O)n(CC(C)C)c1[O-].CCCC[N+](CCCC)(CCCC)CCCC        50° C. Test  positive
4  CCCC[N+](CCCC)(CCCC)CCCC.CCCN1C(=O)C(=CC=Cc2c(C)c(C#N)c(=O)n(CCC)c2[O-])C(C)=C(C#N)C1=O        50° C. Test  positive
5  CCCC[N+](CCCC)(CCCC)CCCC.CCn1c([O-])c(C=CC=C2C(=O)N(CCCOC(C)C)C(=O)C(C#N)=C2C)c(C)c(C#N)c1=O [reference compound]        50° C. Test  negative

Prompt: Query: 50° C. Test; subject: CCCC[N+](CCCC)(CCCC)CCCC.CCCCn1c([O-])c(C=CC=C2C(=O)N(CC)C(=O)C(C#N)=C2C)c(C)c(C#N)c1=O
Completion: positive

Prompt: Query: 50° C. Test; subject: CCCCC[N+](CCCCC)(CCCCC)CCCCC.CCn1c([O-])c(C=CC=C2C(=O)N(CCCOC(C)C)C(=O)C(C#N)=C2C)c(C)c(C#N)c1=O [reference compound]
Completion: negative

Prompt: Query: 50° C. Test; subject: CCCCCN1C(=O)C(=CC=Cc2c(C)c(C#N)c(=O)n(CCCCC)c2[O-])C(C)=C(C#N)C1=O.CCCC[N+](CCCC)(CCCC)CCCC
Completion: positive

Prompt: Query: 50° C. Test; subject: CCCCN1C(=O)C(=CC=Cc2c(C)c(C#N)c(=O)n(CCCC)c2[O-])C(C)=C(C#N)C1=O.CCCC[N+](CCCC)(CCCC)CCCC
Completion: positive

Prompt: Query: 50° C. Test; subject: CC1=C(C#N)C(=O)N(CCCOC(C)C)C(=O)C1=CC=Cc1c(C)c(C#N)c(=O)n(C)c1[O-].CCCC[N+](CCCC)(CCCC)CCCC [reference compound]
Completion: negative

Prompt: Query: 50° C. Test; subject: CC1=C(C#N)C(=O)N(C(C)C)C(=O)C1=CC=Cc1c(C)c(C#N)c(=O)n(C(C)C)c1[O-].CCCC[N+](CCCC)(CCCC)CCCC
Completion: positive
